Below is a list of entries, each paired with its recorded phage ELISA signal ratio value.
measured-target: KPNB1 1-876 IBN_N+Arm (domain begin residue: 1, domain end residue: 876), Q14974
Sequence (Q14974 whole entry): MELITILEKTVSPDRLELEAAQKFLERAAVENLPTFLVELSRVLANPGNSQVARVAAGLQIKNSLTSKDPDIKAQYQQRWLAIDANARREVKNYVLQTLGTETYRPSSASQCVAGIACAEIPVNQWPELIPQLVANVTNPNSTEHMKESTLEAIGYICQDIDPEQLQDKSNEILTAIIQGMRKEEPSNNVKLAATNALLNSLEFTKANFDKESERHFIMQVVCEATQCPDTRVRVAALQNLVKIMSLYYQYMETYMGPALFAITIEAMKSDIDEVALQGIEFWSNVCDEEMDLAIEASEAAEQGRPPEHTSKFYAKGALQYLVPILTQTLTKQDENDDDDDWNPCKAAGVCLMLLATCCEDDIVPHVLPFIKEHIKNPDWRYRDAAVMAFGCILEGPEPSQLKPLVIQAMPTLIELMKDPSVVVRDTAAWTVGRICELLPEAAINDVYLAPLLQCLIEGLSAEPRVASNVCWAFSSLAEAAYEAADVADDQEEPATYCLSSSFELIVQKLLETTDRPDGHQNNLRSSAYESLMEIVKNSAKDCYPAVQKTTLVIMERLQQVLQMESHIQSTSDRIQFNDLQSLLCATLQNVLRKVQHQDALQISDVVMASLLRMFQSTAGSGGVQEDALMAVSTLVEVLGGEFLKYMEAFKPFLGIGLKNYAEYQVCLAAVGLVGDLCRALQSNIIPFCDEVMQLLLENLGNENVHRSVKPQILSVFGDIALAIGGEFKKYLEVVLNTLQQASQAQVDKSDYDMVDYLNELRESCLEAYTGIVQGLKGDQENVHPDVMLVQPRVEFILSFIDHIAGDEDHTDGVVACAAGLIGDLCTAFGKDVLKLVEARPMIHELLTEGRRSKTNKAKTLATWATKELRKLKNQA
measurement-description: phage ELISA signal ratio (GST-PRM binding over GST background); higher = stronger binding of peptide-phage to the PRM
Output spec: single numeric token, no unit.

### Prompt I'd like to know its phage ELISA signal ratio. The binder in question is PWPQEYTTDLTSVFWF
### Response 19.7

### Prompt Given LDWMSMFDDYSSLFSV , state its recorded phage ELISA signal ratio.
### Response 16.8

### Prompt I would be grateful if you could share the reported phage ELISA signal ratio for WISFPFSDWQGDLFTF .
### Response 10.3

### Prompt Field request: phage ELISA signal ratio | item: WVETSTYPEWPAVFVF
### Response 16.3
